Measured values drawn from PubChem BioAssay (NCI) for this set.

Recorded measurements of growth, one per entry
test system: EKVX NSCLC; test: NCI-60 one-dose screen, 48 h (100 = growth as untreated, 0 = no growth, -100 = all killed); settings: 10 µM unless noted
The panel holds about 83,000 compounds, 20% with a hit somewhere; the sample as a whole holds those more often.
measurement.kind: growth (%)

compound: CCc1nc(C)cn1C(=O)OCc1nc2nc(Cl)nc(N3CCOCC3)c2[nH]1
measured.result: 48.2
--
compound: O=C(O)CNC(=O)CN1C(=O)c2ccccc2C1=O
measured.result: 103
--
compound: COc1cc(C2CC(c3cccc(Nc4ccncc4)c3)=NN2c2ccccc2)cc(OC)c1OC (stereo not given)
measured.result: 71.2
--
compound: CCOC(=O)C1CC(=O)c2cc(OC)c(OC)cc2C1 (stereo not given)
measured.result: 114
--
compound: COc1cc(C2CC(c3cccc(Nc4ccncc4)c3)=NN2c2ccc(Cl)cc2)cc(OC)c1OC (stereo not given)
measured.result: 65.2

###

tested on: LOX IMVI melanoma; assay: NCI-60 one-dose screen, 48 h; settings: 10 µM unless noted
Compounds without any hit were thinned out: in the full panel of roughly 83,000, 20% have a hit. The source made the active and inactive calls. How the source made its calls: active means growth percent below 10; inactive means the rest.
Outcomes: active, inactive

molecule: CC(C)(C)CC(C)(C)Nc1c(-c2ccc(C(F)(F)F)cc2)nc2cnccn12
assay.system: LOX IMVI melanoma
class.name: inactive

molecule: O=C(O)C(/C=C/c1ccco1)=N\Nc1nc(-c2ccc(Cl)cc2)cs1
assay.system: LOX IMVI melanoma
class.name: inactive

molecule: CCCCCCN(C)Cc1ccc(OCCOc2ccc(CN(C)CCCCCC)cc2)cc1
assay.system: LOX IMVI melanoma
class.name: active

molecule: COc1ccc(C2=NN(C(C)=O)C(c3cn(Cc4ccc(Cl)cc4)c4ccccc34)C2)cc1 (stereo unspecified)
assay.system: LOX IMVI melanoma
class.name: inactive

molecule: COc1cc(-c2nc3occn3c2-c2ccnc(NCCNS(=O)(=O)c3ccc(Cl)cc3)n2)ccc1F
assay.system: LOX IMVI melanoma
class.name: inactive

molecule: O=C(N/N=C/c1ccncc1)c1ccccc1Nc1cccc(C(F)(F)F)c1
assay.system: LOX IMVI melanoma
class.name: inactive

molecule: O=C(CCN1CCCC1)Nc1ccc2c(Nc3ccccc3)c3ccccc3nc2c1
assay.system: LOX IMVI melanoma
class.name: active

molecule: COc1ccc(Cn2nc3c(c2-c2cc(OC)c(OC)c(OC)c2)-c2oncc2CC3)cc1
assay.system: LOX IMVI melanoma
class.name: inactive

molecule: CN1C(=O)N(C)[C@H]2NC(NN)=N[C@H]21
assay.system: LOX IMVI melanoma
class.name: inactive

molecule: O=C1NC(=O)C(=Cc2cn(Cc3ccccn3)c3ccccc23)C(=O)N1
assay.system: LOX IMVI melanoma
class.name: inactive

molecule: CC(=O)[C@@H]1CC[C@]2(C(=O)n3ccnc3)CC[C@]3(C)[C@H](CC[C@@H]4[C@@]5(C)Cc6c([nH]c7ccccc67)C(C)(C)[C@@H]5CC[C@]43C)[C@@H]12
assay.system: LOX IMVI melanoma
class.name: inactive

molecule: O=S(=O)(c1cccc(NC2=Nc3cccc4cccc2c34)c1)N1CCCC1
assay.system: LOX IMVI melanoma
class.name: inactive

molecule: COc1ccc(C(=O)c2cc3c(N)c(C(=O)Nc4cccc(Cl)c4C)sc3nc2C)cc1
assay.system: LOX IMVI melanoma
class.name: inactive

molecule: COc1ccc(C2=C(c3ccccc3)c3ccc(OC(C)=O)cc3OC2(C)C)cc1
assay.system: LOX IMVI melanoma
class.name: inactive

molecule: CCc1nc(C)cn1C(=O)OCc1nc2nc(Cl)nc(N3CCOCC3)c2[nH]1
assay.system: LOX IMVI melanoma
class.name: active

molecule: CC1=CC[C@@H]2CC[C@]3(C)[C@H](CC[C@@H]4[C@@]5(C)CCCNC(C)(C)[C@@H]5CC[C@]43C)[C@H]2[C@@H]1C
assay.system: LOX IMVI melanoma
class.name: active

molecule: C[C@H]1[C@H](C)CC[C@]2(CO)CC[C@]3(C)C(=CC[C@@H]4[C@@]5(C)CCCNC(C)(C)[C@@H]5CC[C@]43C)[C@H]12
assay.system: LOX IMVI melanoma
class.name: active

molecule: Cc1cn(-c2cc(C(=O)Nc3cccc(C#Cc4cccc5[nH]nc(N)c45)c3)cc(C(F)(F)F)c2)cn1
assay.system: LOX IMVI melanoma
class.name: inactive

molecule: Cc1c2c(cc[n+]1Cc1ccccc1)c1ccc(OCc3ccccc3)cc1n2Cc1ccccc1
assay.system: LOX IMVI melanoma
class.name: active

molecule: CC(=O)O[C@]1(C(C)=O)CC[C@H]2[C@@H]3C=C(Cl)C4=CC(=O)CC[C@]4(C)[C@H]3CC[C@@]21C
assay.system: LOX IMVI melanoma
class.name: inactive

molecule: CC1(C)[C@H](O)CC[C@]2(C)[C@@H]1CC[C@@]13C[C@@H](CC[C@H]12)[C@@](O)(CO)C3
assay.system: LOX IMVI melanoma
class.name: inactive

molecule: CC(C)CCSc1nc(NNC(N)=O)c(C#N)c(-c2ccccc2)n1
assay.system: LOX IMVI melanoma
class.name: inactive

molecule: COc1ccccc1N1CCN(C(=O)c2ccc3nc(NC(=O)c4ccc(NCCc5ccccc5)c([N+](=O)[O-])c4)sc3c2)CC1
assay.system: LOX IMVI melanoma
class.name: inactive

molecule: C(=N\Nc1ncc(-c2cc3cc4c(cc3o2)OCO4)s1)/c1c[nH]c2ccccc12
assay.system: LOX IMVI melanoma
class.name: active

molecule: c1ccc(Cn2nc3c(c2-c2ccccc2)-c2oncc2CC3)cc1
assay.system: LOX IMVI melanoma
class.name: inactive

molecule: NC(=S)N/N=C(/c1ccccc1)c1ccccc1N
assay.system: LOX IMVI melanoma
class.name: inactive

molecule: O=C1Nc2c(ccc(Cl)c2Cl)/C1=C/c1ccc([N+](=O)[O-])cc1
assay.system: LOX IMVI melanoma
class.name: inactive

molecule: O=C(Nc1cccc(Cl)c1)Oc1c(Br)c(Br)c(Br)c(Br)c1Br
assay.system: LOX IMVI melanoma
class.name: inactive

molecule: Cc1ccc2[nH]c(=S)n(-c3ccc(S(=O)(=O)Nc4ccc(Cl)nn4)cc3)c(=O)c2c1
assay.system: LOX IMVI melanoma
class.name: inactive

molecule: CCCN=C(N)c1ccc(NC(=O)c2ccc(C(=O)Nc3ccc(C(N)=NCCC)cc3)cc2)cc1
assay.system: LOX IMVI melanoma
class.name: inactive

molecule: Clc1ccc(N2N=C(c3cccc(Nc4ccncc4)c3)CC2c2ccc(Br)cc2)cc1 (stereo unspecified)
assay.system: LOX IMVI melanoma
class.name: active
